Sourced from ChEMBL document CHEMBL4017532

# assay_text: Retention time of the compound by LC-MS method

>  <compound>
COCC(C(=O)N1C=CN(c2cccc(Cl)c2)CC1)N1C(=O)CCC1=O (stereo not drawn)

>  <unit_of_measure>
min

>  <Retention time>
6.04

$$$$
>  <compound>
COCC(C(=O)N1CCN(c2cccc(C(F)(F)F)c2)CC1)N1C(=O)CCC1=O (stereo not drawn)

>  <unit_of_measure>
min

>  <Retention time>
6.08

$$$$
>  <compound>
COCC(C(=O)N1CCN(c2ccc(C(F)(F)F)cc2)CC1)N1C(=O)CCC1=O (stereo not drawn)

>  <unit_of_measure>
min

>  <Retention time>
6.11

$$$$
